Numbers sourced from the Deep4Chem optical property database.

Consider the following molecules; for each one, report its emission maximum.
# TEST_DESCRIPTION: solvent given as SMILES
# ASSAY_CONTEXT: in CCCCO
Number only, in nm; omit the unit.

# lookup: emission maximum of "COCCOCCOc1cc(C=O)c(OCCOCCOC)cc1C=O" 467

# lookup: emission maximum of "O=C1Nc2ccccc2/C1=C/C(=O)c1ccccc1" 411

# lookup: emission maximum of "CN(C)c1ccc(/C=C/C=C/c2nc3ccccc3s2)cc1" 531

# lookup: emission maximum of "CN(C)c1cccc2c1ccc1c(=O)oc(-c3ccc(C(F)(F)F)cc3)cc12" 586

# lookup: emission maximum of "COc1ccc2c(CC(=O)NN)coc2c1" 384

# lookup: emission maximum of COC(=O)C(Cc1ccc2oc(-c3ccc(-n4c5ccccc5c5ccccc54)cc3)nc2c1)NC(=O)OC(C)(C)C (centres undefined) 430

# lookup: emission maximum of "O=S(=O)(O)c1cccc2cccc(Nc3ccccc3)c12" 477

# lookup: emission maximum of "Oc1ccccc1/N=C/c1ccccc1Oc1ccccc1" 395

# lookup: emission maximum of COC(=O)C(Cc1ccc2oc(-c3ccc(N(c4ccccc4)c4ccccc4)cc3)nc2c1)NC(=O)OC(C)(C)C (centres undefined) 454.5

# lookup: emission maximum of "O=C1c2ccccc2C(=O)N1c1ccc(Cn2cncn2)cc1" 402

# lookup: emission maximum of "CN(C)c1ccc(-c2ccc3n2[B-](F)(F)[N+]2=C(c4ccccc4)C=CC2=C3C(F)(F)F)cc1" 745

# lookup: emission maximum of "O=C(O)c1c2ccccc2nc2ccccc12" 422

# lookup: emission maximum of "N#Cc1c(-c2ccccc2)cc(-c2ccccc2)[nH]c1=S" 506

# lookup: emission maximum of "COc1ccc(-c2ccc(-c3ccc(C#N)s3)s2)cc1" 471

# lookup: emission maximum of "COCCOCCOc1ccc(OCCOCCOC)c(C=O)c1" 456

# lookup: emission maximum of "Nc1ccc2c(C(F)(F)F)cc(=O)oc2c1" 484

# lookup: emission maximum of "CCN(CC)c1ccc2cc(-c3ccc(S(C)(=O)=O)cc3)oc(=O)c2c1" 476

# lookup: emission maximum of "O=C(O)COc1ccc2[nH]c3c(c2c1)CCCC3=O" 464.23

# lookup: emission maximum of "CCN(CC)c1ccc2ccc(=O)oc2c1" 442

###

# TEST_DESCRIPTION: solvent given as SMILES
# ASSAY_CONTEXT: in ClCCl
Consider the following compounds; for each one, report its emission maximum.
Number only, in nm; omit the unit.

# lookup: emission maximum of "CN(C)c1ccc(C2=Nc3sc4c(F)c(F)c(F)c(F)c4[n+]3[B-](F)(F)O2)cc1" 483

# lookup: emission maximum of "COc1ccc2n1[B-](F)(F)[N+]1=CC=CC1=C2c1ccccc1" 518

# lookup: emission maximum of "CCCCCCCCCCCCCCCCCCOc1ccc([B-]23NC(c4ccccc4)=Nc4cccc([n+]42)N=C(c2ccccc2)N3)cc1" 511

# lookup: emission maximum of "Cc1ccccc1-c1c2ccc(=[N+]3CCOCC3)cc-2oc2cc(N3CCCCC3)ccc12" 579

# lookup: emission maximum of "CC(C)(C)c1ccc(-c2cc(-c3ccc(-c4cc(-c5ccc(C(C)(C)C)cc5)c(C#N)s4)s3)sc2C#N)cc1" 443
